Quick reference for Ratio among some molecules
# testDetails: Inhibitory ratio on NOR1-induced NO activation in human Chang liver cells assessed as nitric oxide scavenging activity relative to NOR1
# Type: functional
measurementLabel: Ratio

1) C[C@H](CC[C@@H](O[C@@H]1O[C@H](CO[C@@H]2O[C@H](CO)[C@@H](O)[C@H](O)[C@H]2O)[C@@H](O)[C@H](O)[C@H]1O)C(C)(C)O)[C@H]1CC[C@@]2(C)[C@@H]3CC=C4[C@@H](CC[C@H](O[C@@H]5O[C@H](CO[C@@H]6O[C@H](CO)[C@@H](O)[C@H](O)[C@H]6O)[C@@H](O)[C@H](O)[C@H]5O)C4(C)C)[C@]3(C)C(=O)C[C@]12C [11-OXOMOGROSIDE IV A] = 1.4
2) CC1(C)[C@@H](O[C@H]2O[C@H](C(=O)O)[C@@H](O)[C@H](O)[C@H]2O[C@@H]2O[C@H](C(=O)O)[C@@H](O)[C@H](O)[C@H]2O)CC[C@]2(C)[C@H]3C(=O)C=C4[C@@H]5C[C@@](C)(C(=O)O)CC[C@]5(C)CC[C@@]4(C)[C@]3(C)CC[C@@H]12 [GLYCYRRHIZIN] = 2.2

----------
# Tested on: Human gammaherpesvirus 4
# testDetails: Inhibitory effect on TPA-induced Epstein-Barr virus early antigen activation in Raji cells at 100 mol ratio/32 pmol TPA relative to TPA
# Format: functional
# Set-up: scale not given: the % may be the effect or the level left
Below, each of the molecules is paired with its reported Activity value.
measurementLabel: Activity (%)

1) C[C@H](CC[C@@H](O[C@@H]1O[C@H](CO[C@@H]2O[C@H](CO)[C@@H](O)[C@H](O)[C@H]2O)[C@@H](O)[C@H](O)[C@H]1O)C(C)(C)O)[C@H]1CC[C@@]2(C)[C@@H]3CC=C4[C@@H](CC[C@H](O[C@@H]5O[C@H](CO[C@@H]6O[C@H](CO)[C@@H](O)[C@H](O)[C@H]6O)[C@@H](O)[C@H](O)[C@H]5O)C4(C)C)[C@]3(C)C(=O)C[C@]12C [11-OXOMOGROSIDE IV A] = 82.5
2) C[C@H](CC[C@@H](O[C@@H]1O[C@H](CO[C@@H]2O[C@H](CO)[C@@H](O)[C@H](O)[C@H]2O)[C@@H](O)[C@H](O)[C@H]1O)C(C)(C)O)[C@H]1CC[C@@]2(C)[C@@H]3CC=C4[C@@H](CC[C@H](O[C@@H]5O[C@H](CO)[C@@H](O)[C@H](O)[C@H]5O)C4(C)C)[C@]3(C)CC[C@]12C = 81.9
3) C[C@H](CC[C@@H](O[C@@H]1O[C@H](CO)[C@@H](O)[C@H](O)[C@H]1O)C(C)(C)O)[C@H]1CC[C@@]2(C)[C@@H]3C(=O)C=C4[C@@H](CC[C@H](O[C@@H]5O[C@H](CO)[C@@H](O)[C@H](O)[C@H]5O)C4(C)C)[C@]3(C)[C@H](O)C[C@]12C = 80.8
4) C[C@H](CC[C@@H](O[C@@H]1O[C@H](CO[C@@H]2O[C@H](CO)[C@@H](O)[C@H](O)[C@H]2O)[C@@H](O)[C@H](O)[C@H]1O)C(C)(C)O)[C@H]1CC[C@@]2(C)[C@@H]3CC=C4[C@@H](CC[C@H](O)C4(C)C)[C@]3(C)C(=O)C[C@]12C = 80.6
5) C[C@H](CC[C@@H](O[C@@H]1O[C@H](CO)[C@@H](O)[C@H](O)[C@H]1O)C(C)(C)O)[C@H]1CC[C@@]2(C)[C@@H]3CC=C4[C@@H](CC[C@H](O[C@@H]5O[C@H](CO[C@@H]6O[C@H](CO)[C@@H](O)[C@H](O)[C@H]6O)[C@@H](O)[C@H](O)[C@H]5O)C4(C)C)[C@]3(C)[C@H](O)C[C@]12C [MOGROSIDE III A2] = 75.3
6) C[C@H](CC[C@@H](O)C(C)(C)O[C@@H]1O[C@H](CO)[C@@H](O)[C@H](O)[C@H]1O)[C@H]1CC[C@@]2(C)[C@@H]3CC=C4[C@@H](CC[C@H](O[C@@H]5O[C@H](CO)[C@@H](O)[C@H](O)[C@H]5O)C4(C)C)[C@]3(C)[C@H](O)C[C@]12C [MOGROSIDE II B] = 76
